Data provenance is patent US8669072B2.

Target: Bombyx mori EcR (VBE) (Bombyx mori)
Construct: expressed in transfected cells; host or cells: Human HEK-293 cells, retrovirally infected, clone Z3
Sequence (P49881 86-606 limits assumed): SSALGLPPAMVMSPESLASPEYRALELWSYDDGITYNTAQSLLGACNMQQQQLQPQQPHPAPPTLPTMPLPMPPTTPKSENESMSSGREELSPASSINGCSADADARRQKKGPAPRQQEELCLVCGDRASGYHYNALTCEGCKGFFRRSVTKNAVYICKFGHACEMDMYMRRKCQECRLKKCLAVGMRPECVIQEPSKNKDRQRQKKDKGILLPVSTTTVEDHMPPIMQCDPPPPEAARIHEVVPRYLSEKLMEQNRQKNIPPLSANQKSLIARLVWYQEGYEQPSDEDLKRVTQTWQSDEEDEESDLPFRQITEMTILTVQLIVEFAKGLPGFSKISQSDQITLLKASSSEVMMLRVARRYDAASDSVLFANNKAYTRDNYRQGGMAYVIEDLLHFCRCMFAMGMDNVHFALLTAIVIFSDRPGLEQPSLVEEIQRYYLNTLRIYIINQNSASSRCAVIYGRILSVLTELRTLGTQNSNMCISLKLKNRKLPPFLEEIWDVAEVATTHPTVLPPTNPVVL
Sequence (P19793 1-462 partner): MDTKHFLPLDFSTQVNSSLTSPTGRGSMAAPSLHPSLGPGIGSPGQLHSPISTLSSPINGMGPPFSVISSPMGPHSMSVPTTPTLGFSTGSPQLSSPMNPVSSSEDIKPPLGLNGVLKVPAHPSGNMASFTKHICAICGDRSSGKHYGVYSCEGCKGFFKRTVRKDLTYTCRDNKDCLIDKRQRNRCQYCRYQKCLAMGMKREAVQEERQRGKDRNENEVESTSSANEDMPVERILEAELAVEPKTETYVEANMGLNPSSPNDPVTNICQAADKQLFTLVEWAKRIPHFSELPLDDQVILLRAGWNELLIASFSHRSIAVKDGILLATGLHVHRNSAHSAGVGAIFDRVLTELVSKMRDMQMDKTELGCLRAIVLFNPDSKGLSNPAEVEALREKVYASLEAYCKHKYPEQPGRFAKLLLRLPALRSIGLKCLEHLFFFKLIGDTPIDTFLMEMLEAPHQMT
Experiment: Z3 assay: β-galactosidase reporter gene induction in HEK-293 clone Z3 (CVBE / 6XEcRE LacZ)
Type: cell-based
Settings: 33 μM ligand, 48 h, RLU relative to DMSO
outcome-measure: Fold Induction Average, Z3 assay
// no unit, no text: just the number

[[record]]
compound = "CC1(C)ON=C(c2ccc3c(c2)OCO3)N1NC(=O)c1cc2ccccc2s1"
measured_number = 0.5

[[record]]
compound = "COc1ccc(C2=NOC(C)(C)N2NC(=O)COCc2ccccc2)c(OC)c1"
measured_number = 0.5

[[record]]
compound = "Cc1cccc(NC(=O)NN2C(c3cc(C)cc(C)c3)=NOC2(C)C)c1"
measured_number = 1.0

[[record]]
compound = "CCC1(C)ON=C(c2cc(C)cc(C)c2)N1NC(=O)COCc1ccccc1 (centres unmarked)"
measured_number = 3.5


Here's the next entry for you.
Report Fold Induction Average, Z3 assay for CC1(C)ON=C(c2ccc(OC(F)(F)F)cc2)N1NC(=O)c1cc2ccccc2s1
0.2
